Recorded measurements of pIC50, one per entry
Molecular target: KCNT1 (KNa1.1, Slack) (Homo sapiens, UniProt Q5JUK3)
Sequence (Q5JUK3 whole entry): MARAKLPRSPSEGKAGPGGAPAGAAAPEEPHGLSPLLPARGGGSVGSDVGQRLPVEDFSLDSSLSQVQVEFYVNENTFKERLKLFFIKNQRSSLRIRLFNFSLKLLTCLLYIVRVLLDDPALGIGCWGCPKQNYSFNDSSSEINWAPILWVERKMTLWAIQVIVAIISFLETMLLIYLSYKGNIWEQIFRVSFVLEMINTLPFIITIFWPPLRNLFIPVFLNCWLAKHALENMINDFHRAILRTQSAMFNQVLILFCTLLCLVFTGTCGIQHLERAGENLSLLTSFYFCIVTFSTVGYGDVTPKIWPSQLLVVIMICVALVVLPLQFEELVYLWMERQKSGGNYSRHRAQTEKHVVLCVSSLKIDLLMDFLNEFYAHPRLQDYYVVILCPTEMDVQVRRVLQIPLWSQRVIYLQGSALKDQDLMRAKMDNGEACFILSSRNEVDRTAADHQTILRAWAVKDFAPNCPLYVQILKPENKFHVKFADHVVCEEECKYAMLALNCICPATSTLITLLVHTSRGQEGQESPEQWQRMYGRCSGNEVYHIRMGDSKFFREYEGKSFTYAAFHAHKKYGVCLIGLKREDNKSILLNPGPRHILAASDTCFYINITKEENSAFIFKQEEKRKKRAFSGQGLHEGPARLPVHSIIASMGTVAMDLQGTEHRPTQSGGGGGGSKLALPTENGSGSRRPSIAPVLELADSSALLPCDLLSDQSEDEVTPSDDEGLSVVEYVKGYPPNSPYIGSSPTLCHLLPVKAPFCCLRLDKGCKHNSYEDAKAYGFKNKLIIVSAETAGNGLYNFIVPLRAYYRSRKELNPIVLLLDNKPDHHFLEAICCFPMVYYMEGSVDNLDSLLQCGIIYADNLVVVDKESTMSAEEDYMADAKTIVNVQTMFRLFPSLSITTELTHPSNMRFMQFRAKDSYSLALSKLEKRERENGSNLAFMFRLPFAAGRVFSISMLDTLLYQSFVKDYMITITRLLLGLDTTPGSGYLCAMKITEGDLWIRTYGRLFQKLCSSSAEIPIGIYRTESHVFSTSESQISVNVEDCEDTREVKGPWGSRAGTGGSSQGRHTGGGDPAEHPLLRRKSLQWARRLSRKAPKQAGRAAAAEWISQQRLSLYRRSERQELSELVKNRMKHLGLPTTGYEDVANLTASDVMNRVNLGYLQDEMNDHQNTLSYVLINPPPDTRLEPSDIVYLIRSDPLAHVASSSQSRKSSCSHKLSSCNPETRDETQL
Test: KCNT1-WT-Basal patch clamp assay (SyncroPatch 384PE, HEK-TREX inducible cell line)
Conditions: tetracycline inducible HEK-TREX cells; perforated patch; holding -80 mV, 100 ms step to 0 mV; room temperature; read-out: KCNT1 WB IC50
Procedure: KCNT1-WT-Basal—Patch Clamp Assay Inhibition of KCNT1 (KNa1.1, Slack) was evaluated using a tetracycline inducible cell line (HEK-TREX). Currents were recorded using the SyncroPatch 384PE automated, patch clamp system. […] Current were recorded in perforated patch mode (10 μM escin) from a population of cells. […] Currents were recorded at room temperature. […] Mean current was measured during the step to 0 mV. […]
pIC50: −log10 of the molar value.
VALUE TYPE: pIC50

> print(dat)
                                   compound                               target.desc  observed
1  Nc1ccc(C(=O)N[C@H]2CCc3cc(Cl)ccc32)cc1 (single isomer, unassigned) [Compound II-16]  KCNT1 (KNa1.1, Slack) (Homo sapiens, UniProt Q5JUK3)    ≤ 4.70
2  CN(C)C(=O)c1ccc(C(=O)N[C@@H]2CCc3cc(Cl)ccc32)s1 [Compound I-29]  KCNT1 (KNa1.1, Slack) (Homo sapiens, UniProt Q5JUK3)    ≥ 6.00
3  O=C(N[C@@H]1CCc2cc(Cl)ccc21)c1ccc(S(=O)(=O)N2CCCC2)s1 [Compound I-17]  KCNT1 (KNa1.1, Slack) (Homo sapiens, UniProt Q5JUK3)    ≥ 6.00
4  CC(=O)Nc1cccc(C(=O)N[C@@H]2CCc3cc(Cl)ccc32)c1O [Compound III-16]  KCNT1 (KNa1.1, Slack) (Homo sapiens, UniProt Q5JUK3)    ≥ 6.00
5  O=C(N[C@@H]1CCc2cc(Cl)ccc21)c1cccc(Cl)c1O [Compound III-7]  KCNT1 (KNa1.1, Slack) (Homo sapiens, UniProt Q5JUK3)    ≥ 6.00
6  CC(=O)NCc1ccc(C(=O)N[C@@H]2CCc3cc(Cl)ccc32)s1 [Compound I-44]  KCNT1 (KNa1.1, Slack) (Homo sapiens, UniProt Q5JUK3)    ≥ 6.00

Ref: patent US20220280476A1
